List of IC50 values.
tested system: Tumor necrosis factor (Homo sapiens, UniProt P01375)
Sequence (P01375 whole entry): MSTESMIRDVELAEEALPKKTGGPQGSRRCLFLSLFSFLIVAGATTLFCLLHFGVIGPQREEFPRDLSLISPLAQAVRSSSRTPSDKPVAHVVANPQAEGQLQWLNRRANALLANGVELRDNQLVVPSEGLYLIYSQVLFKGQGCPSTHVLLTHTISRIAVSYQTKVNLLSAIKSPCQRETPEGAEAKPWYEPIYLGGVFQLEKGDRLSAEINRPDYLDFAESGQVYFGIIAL

- molecule: "CC(=O)N1CC[C@H](Nc2nc(N3CC(OC(=O)c4cnsc4)C3)nc3c2[S@+]([O-])CC3)C1 [US11365204, Example 72]"
  relation operator: "<"
  IC50 / nM: 100
- molecule: "CC(=O)N1CC[C@H](Nc2nc(N3CC(OC(=O)C4CCOCC4)C3)nc3c2[S@+]([O-])CC3)C1 [US11365204, Example 74]"
  relation operator: "="
  IC50 / nM: 300
- molecule: "CC(=O)N1CCC(Nc2nc(N3CC(OC(=O)c4cscn4)C3)nc3c2[S+]([O-])CC3)CC1 (centres undefined) [US11365204, Example 76]"
  relation operator: ">"
  IC50 / nM: 500
- molecule: "CC(=O)N1CC[C@H](Nc2nc(N3CC(OC(=O)c4cscn4)C3)nc3c2[S@+]([O-])CC3)C1 [US11365204, Example 73]"
  relation operator: "="
  IC50 / nM: 300
